Values were extracted from ChEMBL document CHEMBL1134641.

Test system: Oryctolagus cuniculus
Assay Remarks: In vivo evaluation of potential efficacy observed as the maximum increase in QTc interval from the methoxamine infusion baseline in rabbits
Type: functional
Item-by-item account of QTc interval
Respond with a number, then the unit of measure.

Item: CCN(CCCCCC(C)(C)F)CCCC(O)c1ccc(NS(C)(=O)=O)cc1 (centres undefined) | QTc interval: 136 ms

QTc interval for CCN(CC/C=C/c1ccc(NS(C)(=O)=O)cc1)CCCCCC(C)F (centres undefined) is 75 ms

Entry under test: CCCCCCCN(CC)CCC[C@@H](O)c1ccc(NS(C)(=O)=O)cc1 . Its QTc interval was 112 ms

The compound listed as CCN(CCCCCC(C)(C)F)CCCCc1ccc(NS(C)(=O)=O)cc1 has a reported QTc interval of 105 ms

Memo: CCN(CCCCCCC(F)F)CCC[C@H](O)c1ccc(NS(C)(=O)=O)cc1 , reported QTc interval: 118 ms

Entry CCN(CCCCCCCF)CCCCc1ccc(NS(C)(=O)=O)cc1 — recorded QTc interval = 96 ms

Form: compound = CCN(CCCCCC(C)F)CCC[C@H](O)c1ccc(NS(C)(=O)=O)cc1 (some centres undefined) ; QTc interval = 130 ms

For record CCN(CCCCCC(C)F)CCCCc1ccc(NS(C)(=O)=O)cc1 (centres undefined) the listed QTc interval is 94 ms

---

System: Oryctolagus cuniculus
Assay Remarks: In vivo evaluation of potential efficacy observed as the maximum increase in QTc interval from the methoxamine infusion baseline in rabbits
Assay type: functional
Reported QTc interval values are given for each entry in this list.
# output: bare number, implied unit ms

Some compounds with recorded QTc interval:
{"columns": ["Compound", "QTc interval (ms)"],
 "data": [
  ["CCN(CCCCCC(F)F)CCC[C@H](O)c1ccc(NS(C)(=O)=O)cc1", 154],
  ["CCN(CCCCC(C)(C)F)CCCC(O)c1ccc(NS(C)(=O)=O)cc1 (stereo unspecified)", 174],
  ["CCN(CCCCCC(C)(F)F)CCCC(O)c1ccc(NS(C)(=O)=O)cc1 (stereo unspecified)", 96],
  ["CCN(CCCCCCC(F)F)CCCC(O)c1ccc(NS(C)(=O)=O)cc1 (stereo unspecified)", 71],
  ["CCN(CCCCCCCF)CCC[C@H](O)c1ccc(NS(C)(=O)=O)cc1", 105]
]}

// returns QTc interval for CCN(CCCCCC(C)(C)F)CCC[C@@H](O)c1ccc(NS(C)(=O)=O)cc1 with Oryctolagus cuniculus; value = 92

Value sought: QTc interval, system Oryctolagus cuniculus, item CCN(CCCCCC(C)F)CCCC(O)c1ccc(NS(C)(=O)=O)cc1.O=C(O)/C=C/C(=O)O (stereo unspecified) . Result: 166

Log: Oryctolagus cuniculus, compound CCCCCCCN(CC)CCC[C@H](O)c1ccc(NS(C)(=O)=O)cc1 , QTc interval = 145

Measured QTc interval (Oryctolagus cuniculus), entry CCN(CCCCCC(C)(F)F)CCC[C@H](O)c1ccc(NS(C)(=O)=O)cc1 : 106

The reported QTc interval value, Oryctolagus cuniculus, for CCCCCCCN(CC)CCCC(O)c1ccc(NS(C)(=O)=O)cc1 (stereo unspecified) [IBUTILIDE] reads 85

Considering CCN(CCCCCC(C)(C)F)CCC[C@H](O)c1ccc(NS(C)(=O)=O)cc1 [TRECETILIDE] , its QTc interval with Oryctolagus cuniculus was recorded as 83
